Data credit: ChEMBL document CHEMBL3885861

Species on record: Rattus norvegicus
Experiment: Open TG-GATES - Regimen: Single
Assay type: toxicity, organism-based, Sprague-Dawley
Set-up: regimen Single, gender Male, age 6 weeks
Settings: in vivo, po, 0 mg/kg, 6 h, tissue Blood, route gavage, dose level Control
Would you kindly list Lym for each of these molecules?
One number for each entry, in %.

Look over these answered cases.
INSERT INTO measurements (molecule, assay_metric, result_number) VALUES
  ('O=C1NC(=O)C(c2ccccc2)(c2ccccc2)N1', 'Lym', 79.4),
  ('COc1ccc(O)c(C(C)(C)C)c1.COc1ccc(O)cc1C(C)(C)C [BUTYLATED HYDROXYANISOLE]', 'Lym', 75.4),
  ('Cc1cccc(Nc2cc(Cl)nc(SCC(=O)O)n2)c1C', 'Lym', 73.4),
  ('Cn1cnc([N+](=O)[O-])c1Sc1ncnc2nc[nH]c12', 'Lym', 73.8);

Give Lym for each listed item.
1. O=C1CN(/N=C/c2ccc(-c3ccc([N+](=O)[O-])cc3)o2)C(O)=N1
2. COc1ccc(Cl)cc1C(=O)NCCc1ccc(S(=O)(=O)NC(=O)NC2CCCCC2)cc1 [GLYBURIDE]
3. CS(=O)(=O)Nc1ccc([N+](=O)[O-])cc1Oc1ccccc1 [NIMESULIDE]
4. S=C=Nc1cccc2ccccc12 [1-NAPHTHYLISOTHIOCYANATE]
5. CNCCC(Oc1ccc(C(F)(F)F)cc1)c1ccccc1.Cl (stereo unspecified) [FLUOXETINE HYDROCHLORIDE]
6. Cc1cnc(NC(=O)C2=C(O)c3ccccc3S(=O)(=O)N2C)s1

1: 77.4; 2: 70.2; 3: 72.6; 4: 76; 5: 72; 6: 75.2

Return Lym (reported value) for this molecule: C=CCO
73.2
